- targetOrTestSystem: human LPA1 (Homo sapiens, UniProt Q92633)
- Construct: expressed in transfected cells; host or cells: Chinese hamster ovary (CHO) cells
- Sequence (Q92633 whole entry): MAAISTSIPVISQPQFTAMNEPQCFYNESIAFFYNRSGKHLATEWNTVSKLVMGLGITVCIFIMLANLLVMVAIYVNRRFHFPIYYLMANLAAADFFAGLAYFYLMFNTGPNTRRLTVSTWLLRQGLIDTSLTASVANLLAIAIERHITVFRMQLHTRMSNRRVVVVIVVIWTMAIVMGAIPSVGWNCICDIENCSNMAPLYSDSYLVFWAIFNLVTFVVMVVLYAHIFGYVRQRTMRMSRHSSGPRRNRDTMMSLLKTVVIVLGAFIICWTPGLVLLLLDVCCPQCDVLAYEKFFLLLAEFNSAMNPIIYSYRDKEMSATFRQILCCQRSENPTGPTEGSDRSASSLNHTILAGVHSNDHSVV
- assaySummary: LPA1 functional antagonist assay (LPA-induced calcium flux in CHO cells overexpressing human LPA1)
- Assay type: cell-based
- assayConditions: inhibition of calcium flux induced by 10 nM LPA, CHO cells overexpressing human LPA1; read-out: hLPA1 IC50
- Experimental: The effectiveness of compounds of the present invention as LPA1 inhibitors can be determined in an LPA1 functional antagonist assay as follows: Chinese hamster ovary cells overexpressing human LPA1 were plated overnight (15,000 cells/well) in poly-D-lysine coated 384-well microplates (Greiner bio-one, Cat #781946) in DMEM/F12 medium (Gibco, Cat #11039). […] IC50 values were determined by fitting data to a 4-parameter logistic equation (GraphPad Prism, San Diego Calif.).
pIC50: −log10 of the molar value.
parameterMeasured: pIC50

Examples with their reported pIC50 follow.
Cc1nc(-c2nnn(C)c2Cc2noc(CCC(C)C)n2)ccc1O[C@H]1CCC[C@H](C(=O)O)C1 ... 7.96
Cc1nc(-c2nnn(C)c2CNc2nc(C3CCC3)ns2)ccc1O[C@H]1CCC[C@H](C(=O)O)C1 ... 7.14
Cc1nc(-c2nnn(C)c2CNc2cnn(C(C)C)n2)ccc1O[C@H]1CCC[C@H](C(=O)O)C1 ... 6.47

A = Cc1nc(-c2nnn(C)c2Cc2noc(Cc3ccccc3)n2)ccc1O[C@H]1CCC[C@H](C(=O)O)C1
B = CCCc1nnnn1Cc1c(-c2ccc(O[C@H]3CCC[C@H](C(=O)O)C3)cn2)nnn1C
C = Cc1nc(-c2nnn(C)c2CNc2noc(C(C)(C)C)n2)ccc1O[C@H]1CCC[C@H](C(=O)O)C1
D = Cc1nc(-c2nnn(C)c2CNc2noc(C3CCC3)n2)ccc1O[C@H]1CCC[C@H](C(=O)O)C1
E = Cc1nc(-c2nnn(C)c2CNc2noc(C(C)C3CC3)n2)ccc1O[C@H]1CCC[C@H](C(=O)O)C1 (stereo partly shown) [Example 193]
## Input With regard to pIC50, arrange the entries in ascending order, please. Provide the labels, sequenced as the question asks.
## Output B, C, E, D, A
(B: 6.58, C: 7.07, E: 7.48, D: 7.70, A: 8.10)

a = CCCCn1cnc(NCc2c(-c3ccc(O[C@H]4CCC[C@H](C(=O)O)C4)c(C)n3)nnn2C)n1
b = CCc1nc(-c2nnn(C)c2Cn2nnc(CC3CC3)n2)ccc1O[C@H]1CCC[C@H](C(=O)O)C1
c = Cc1nc(-c2nnn(C)c2CNc2nsc(-c3ccccc3)n2)ccc1O[C@H]1CCC[C@H](C(=O)O)C1
## Input Put the entries in order of pIC50, starting with the largest number. Provide the labels, sequenced as the question asks.
## Output c, b, a
(c: 7.74, b: 7.49, a: 7.17)

I = CCOCCc1nc(NCc2c(-c3ccc(O[C@H]4CCC[C@H](C(=O)O)C4)c(C)n3)nnn2C)no1
II = Cc1nc(-c2nnn(C)c2Cc2noc(CC3CCC3)n2)ccc1O[C@H]1CCC[C@H](C(=O)O)C1
## Input Endpoint returns whichever of I and II has the numerically higher pIC50. Indicate your choice by writing its label.
## Output II
(II: 7.55, I: 7.01)

---

- targetOrTestSystem: human LPA1 (Homo sapiens, UniProt Q92633)
- Construct: expressed in transfected cells; host or cells: Chinese hamster ovary (CHO) cells
- assaySummary: LPA1 functional antagonist assay (LPA-induced calcium flux in CHO cells overexpressing human LPA1)
- Type: cell-based
- assayConditions: inhibition of calcium flux induced by 10 nM LPA, CHO cells overexpressing human LPA1; read-out: hLPA1 IC50
pIC50: −log10 of the molar value.
parameterMeasured: pIC50

Examples with their reported pIC50 follow.
Cn1nnc(-c2ccc(O[C@H]3CCC[C@H](C(=O)O)C3)cn2)c1CNc1noc(CCCC(F)(F)F)n1 ... 7.31
Cc1nc(-c2nnn(C)c2CNc2cc(C3CC3)nn2C)ccc1O[C@H]1CCC[C@H](C(=O)O)C1 ... 5.89
CCc1nc(-c2nnn(C)c2Cn2nnnc2CC2CC2)ccc1O[C@H]1CCC[C@H](C(=O)O)C1 ... 6.69
Cc1nc(-c2nnn(C)c2Cn2nnc(OC3CCC3)n2)ccc1O[C@H]1CCC[C@@H](C(=O)O)C1 ... 6.39
Cc1nc(-c2nnn(C)c2CNc2nc(C(C)C)ns2)ccc1O[C@H]1CCC[C@H](C(=O)O)C1 ... 7.15

1 = Cc1nc(-c2nnn(C)c2CNc2noc(C3CC3)n2)ccc1O[C@H]1CCC[C@H](C(=O)O)C1
2 = CCCCc1cn(Cc2c(-c3ccc(O[C@H]4CCC[C@H](C(=O)O)C4)c(C#N)n3)nnn2C)nn1
## Input Endpoint returns whichever of 1 and 2 has the numerically higher pIC50. Indicate your choice by writing its label.
## Output 2

1 = Cc1nc(-c2nnn(C)c2Cc2nnc(Cc3ccccc3)o2)ccc1O[C@H]1CCC[C@H](C(=O)O)C1
2 = Cc1nc(-c2nnn(C)c2Cn2nnnc2C2CCCC2)ccc1O[C@H]1CCC[C@H](C(=O)O)C1
## Input Endpoint returns whichever of 1 and 2 has the numerically higher pIC50. Indicate your choice by writing its label.
## Output 1
(1: 7.26, 2: 6.41)

---

- targetOrTestSystem: human LPA1 (Homo sapiens, UniProt Q92633)
- Construct: expressed in transfected cells; host or cells: Chinese hamster ovary (CHO) cells
- assaySummary: LPA1 functional antagonist assay (LPA-induced calcium flux in CHO cells overexpressing human LPA1)
- Assay type: cell-based
- assayConditions: inhibition of calcium flux induced by 10 nM LPA, CHO cells overexpressing human LPA1; read-out: hLPA1 IC50
parameterMeasured: IC50 (nM)

Examples with their reported IC50 follow.
Cc1nc(-c2nnn(C)c2CNc2noc(CCCF)n2)ccc1O[C@H]1CCC[C@H](C(=O)O)C1 [Example 184] ... 74
CCc1cnc(NCc2c(-c3ccc(O[C@H]4CCC[C@H](C(=O)O)C4)c(C)n3)nnn2C)o1 [Example 19] ... 106

1 = CCCc1cnn(Cc2c(-c3ccc(O[C@H]4CCC[C@H](C(=O)O)C4)c(C)n3)nnn2C)n1 [Example 270]
2 = CCCc1nnc(NCc2c(-c3ccc(O[C@H]4CCC[C@H](C(=O)O)C4)c(C)n3)nnn2C)s1 [Example 2]
## Input Endpoint returns whichever of 1 and 2 has the numerically higher IC50. Indicate your choice by writing its label.
## Output 2
(2: 185 nM, 1: 61 nM)

P = Cc1nc(-c2nnn(C)c2Cn2nnc(COc3ccccc3)n2)ccc1O[C@H]1CCC[C@H](C(=O)O)C1 [Example 300]
Q = Cc1nc(-c2nnn(C)c2Cn2nnc(-c3ccc(F)cc3)n2)ccc1O[C@H]1CCC[C@H](C(=O)O)C1 [Example 322]
## Input Endpoint returns whichever of P and Q has the numerically higher IC50. Indicate your choice by writing its label.
## Output Q

---

- targetOrTestSystem: human LPA1 (Homo sapiens, UniProt Q92633)
- Construct: expressed in transfected cells; host or cells: Chinese hamster ovary (CHO) cells
- assaySummary: LPA1 functional antagonist assay (LPA-induced calcium flux in CHO cells overexpressing human LPA1)
- Assay type: cell-based
- assayConditions: inhibition of calcium flux induced by 10 nM LPA, CHO cells overexpressing human LPA1; read-out: hLPA1 IC50
parameterMeasured: IC50 (nM)

Examples with their reported IC50 follow.
CCCc1nc(NCc2c(-c3ccc(O[C@H]4CCC[C@H](C(=O)O)C4)c(C)n3)nnn2C)no1 [Example 68] ... 42
CCCn1cc(NCc2c(-c3ccc(O[C@H]4CCC[C@H](C(=O)O)C4)c(C)n3)nnn2C)nn1 [Example 11] ... 705
CCCCNc1nnn(Cc2c(-c3ccc(O[C@H]4CCC[C@H](C(=O)O)C4)c(C)n3)nnn2C)n1 [Example 362] ... 316
Cc1nc(-c2nnn(C)c2CNc2noc(C(C)C)n2)ccc1O[C@H]1CCC[C@H](C(=O)O)C1 [Example 174] ... 223
Cc1nc(-c2nnn(C)c2Cn2nnnc2Cc2ccccc2)ccc1O[C@H]1CCC[C@H](C(=O)O)C1 [Example 110] ... 207
Cc1nc(-c2nnn(C)c2Cc2nc(Cc3ccccc3)no2)ccc1O[C@H]1CCC[C@H](C(=O)O)C1 [Example 244] ... 40
Cc1nc(-c2nnn(C)c2Cn2cnc(-c3ccccc3)n2)ccc1O[C@H]1CCC[C@H](C(=O)O)C1 [Example 208] ... 370
Cc1nc(-c2nnn(C)c2CNc2nc(C)c(C)s2)ccc1O[C@H]1CCC[C@H](C(=O)O)C1 [Example 26] ... 3650
Cn1nnc(-c2ccc(O[C@H]3CCC[C@H](C(=O)O)C3)cn2)c1CNc1noc(CC2CCC2)n1 [Example 288] ... 34.1
CC(C)Cc1nnn(Cc2c(-c3ccc(O[C@H]4CCC[C@H](C(=O)O)C4)cn3)nnn2C)n1 [Example 254] ... 288

I = Cc1nc(-c2nnn(C)c2CNc2nc(CC3CCC3)no2)ccc1O[C@H]1CCC[C@H](C(=O)O)C1 [Example 156]
II = Cc1nc(-c2nnn(C)c2CNc2ncc(-c3ccccc3)s2)ccc1O[C@H]1CCC[C@H](C(=O)O)C1 [Example 16]
## Input Endpoint returns whichever of I and II has the numerically higher IC50. Indicate your choice by writing its label.
## Output II

Just for reference, patent US11319315B2 is where these values come from.
